Provenance of the data: paper PMC11768771

tested on: L. major promastigotes; assay: Leishmania major testing assay, promastigotes; format: cell-based; settings: ratio macrophages IC50 / promastigotes IC50
Measured SI (Promastigotes) selectivity index (macrophages/L. major) by item

Some solved entries appear below for comparison.
>>> result("COc1ccccc1C(=O)/C=C/c1c2ccccc2cc2ccccc12 [2MeO-Anth]")
26.6
>>> result("COc1ccc(C(=O)/C=C/c2cccc([N+](=O)[O-])c2)c(OC)c1 [24DMP-3NO]")
29.3
>>> result("COc1ccc(C(=O)/C=C/c2c3ccccc3cc3ccccc23)c(OC)c1 [24DMP-Anth]")
22.3
>>> result("COc1cc(OC)c(C(=O)/C=C/c2c3ccccc3cc3ccccc23)c(OC)c1 [246TMP-Anth]")
21.7

# next molecule below
### Prompt Record request: SI (Promastigotes) selectivity index (macrophages/L. major) value, item COc1cc(OC)c(C(=O)/C=C/c2cccc(S(F)(F)(F)(F)F)c2)c(OC)c1 [246TMP-3SF5]
### Response 3.5
